Source listed as ChEMBL document CHEMBL6120968.

# protocol_summary: MRTlast in rat at 20 mg/kg, iv by LC-MS/MS analysis
# Type: ADME, organism-based
# assay_conditions: in vivo
endpoint_name: MRT last
Show the value, then the unit it is measured in.

Any idea what MRT last was measured for "Cc1oc(-c2cccc(C(F)(F)F)c2)cc1C(=O)Nc1nc(CN2CCOCC2)ns1" ?
6 h

----------
# protocol_summary: AUC (0 to infinity) in rat at 20 mg/kg, po by LC-MS/MS analysis
# Assay type: ADME, organism-based
# assay_conditions: in vivo
endpoint_name: AUC(0-inf) (ng·h/mL)
The response must be a number in ng·h/mL with no trailing unit.

AUC(0-inf) lookup needed for "Cc1oc(-c2cccc(C(F)(F)F)c2)cc1C(=O)Nc1nc(CN2CCOCC2)ns1" , thanks.
22100

----------
# assayed_target: Progesterone receptor (Homo sapiens)
# Sequence (P06401 whole entry): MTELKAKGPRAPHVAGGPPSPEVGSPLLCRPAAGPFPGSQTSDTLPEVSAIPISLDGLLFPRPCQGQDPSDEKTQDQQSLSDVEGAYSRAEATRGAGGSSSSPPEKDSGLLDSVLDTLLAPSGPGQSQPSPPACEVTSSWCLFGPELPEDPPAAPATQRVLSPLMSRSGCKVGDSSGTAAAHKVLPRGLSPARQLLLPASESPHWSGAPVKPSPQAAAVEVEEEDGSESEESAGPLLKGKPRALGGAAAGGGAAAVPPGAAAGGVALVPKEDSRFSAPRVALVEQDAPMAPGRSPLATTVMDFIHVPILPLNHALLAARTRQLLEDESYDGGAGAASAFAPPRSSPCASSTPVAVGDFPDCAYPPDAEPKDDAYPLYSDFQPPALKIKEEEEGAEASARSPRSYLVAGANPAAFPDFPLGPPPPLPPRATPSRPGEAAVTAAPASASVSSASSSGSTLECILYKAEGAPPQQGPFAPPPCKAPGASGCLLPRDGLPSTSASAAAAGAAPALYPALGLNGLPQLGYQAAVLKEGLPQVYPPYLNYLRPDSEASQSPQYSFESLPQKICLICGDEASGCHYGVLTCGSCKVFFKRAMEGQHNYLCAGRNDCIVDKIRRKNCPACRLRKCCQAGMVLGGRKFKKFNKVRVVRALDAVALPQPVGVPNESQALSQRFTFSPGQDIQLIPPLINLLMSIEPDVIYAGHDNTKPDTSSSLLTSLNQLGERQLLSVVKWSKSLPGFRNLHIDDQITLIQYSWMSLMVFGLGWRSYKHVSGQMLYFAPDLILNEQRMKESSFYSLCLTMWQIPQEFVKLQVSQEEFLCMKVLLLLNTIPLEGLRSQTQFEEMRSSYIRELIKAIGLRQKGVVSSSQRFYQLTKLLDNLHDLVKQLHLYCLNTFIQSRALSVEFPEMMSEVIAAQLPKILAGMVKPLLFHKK
endpoint_name: IC50

Could you share which IC50 value was measured for "Cc1oc(-c2cccc(C(F)(F)F)c2)cc1C(=O)Nc1nc(CN2CCOCC2)ns1" ?
> 10 µM

----------
# protocol_summary: Observed apparent oral clearance in rat at 20 mg/kg, po by LC-MS/MS analysis
# Type: ADME, organism-based
# assay_conditions: in vivo
endpoint_name: CL/F (mL/min/kg)
Respond numerically; units are mL/min/kg and should not be typed.

Would you mind telling me what CL/F value was observed for "Cc1oc(-c2cccc(C(F)(F)F)c2)cc1C(=O)Nc1nc(CN2CCOCC2)ns1" ?
17.3

----------
# assayed_target: UniProt P10275
# protocol_summary: Antagonist activity at Androgen receptor in human LNCaP cells transfected with ARR2PB-eGFP incubated for 3 days by synergy H1 microplate reader analysis
Label key: Condition met means IC50 under 200 nM; Condition not met means IC50 of 200 nM or more.

Examples from the recorded data:
[
  {
    "compound": "Cc1oc(-c2cccc(C(F)(F)F)c2)cc1C(=O)Nc1nc(CC(C)N2CCN(C)CC2)ns1 (stereo not given)",
    "group_label": "Condition met"
  },
  {
    "compound": "Cc1oc(-c2cccc(C(F)(F)F)c2)cc1C(=O)Nc1nc(CN2CCOCC2)ns1",
    "group_label": "Condition met"
  },
  {
    "compound": "Cc1oc(-c2cccc(C(F)(F)F)c2)cc1C(=O)Nc1nc(CN2CCN(C)CC2)ns1",
    "group_label": "Condition met"
  }
]

Record Cc1oc(-c2cccc(C(F)(F)F)c2)cc1C(=O)Nc1nc(CC(C)N(C)C)ns1 (stereo not given) : is its IC50 strictly below 200 nM?
Condition not met

Could you please tell me whether IC50 recorded for "Cc1oc(-c2cc(Cl)cc(C(F)(F)F)c2)cc1C(=O)Nc1nc(CN2CCOCC2)ns1" is less than 200 nM?
Condition not met

Consider the compound "Cc1oc(-c2cccc(C(F)(F)F)c2)cc1C(=O)Nc1nc(CN2CCC(CO)CC2)ns1" . Is its IC50 strictly less than 200 nM?
Condition met

Does "Cc1oc(-c2cccc(OC(F)F)c2)cc1C(=O)Nc1nc(CN2CCOCC2)ns1" have IC50 strictly under 200 nM?
Condition met

Confirm or reject: IC50 of "Cc1oc(-c2cccc(C(F)(F)F)c2)cc1C(=O)Nc1ncns1" lies strictly below 200 nM
Condition met

----------
# assayed_target: Androgen receptor (Homo sapiens, UniProt P10275, F877L)
# Sequence (P10275 whole entry F877L): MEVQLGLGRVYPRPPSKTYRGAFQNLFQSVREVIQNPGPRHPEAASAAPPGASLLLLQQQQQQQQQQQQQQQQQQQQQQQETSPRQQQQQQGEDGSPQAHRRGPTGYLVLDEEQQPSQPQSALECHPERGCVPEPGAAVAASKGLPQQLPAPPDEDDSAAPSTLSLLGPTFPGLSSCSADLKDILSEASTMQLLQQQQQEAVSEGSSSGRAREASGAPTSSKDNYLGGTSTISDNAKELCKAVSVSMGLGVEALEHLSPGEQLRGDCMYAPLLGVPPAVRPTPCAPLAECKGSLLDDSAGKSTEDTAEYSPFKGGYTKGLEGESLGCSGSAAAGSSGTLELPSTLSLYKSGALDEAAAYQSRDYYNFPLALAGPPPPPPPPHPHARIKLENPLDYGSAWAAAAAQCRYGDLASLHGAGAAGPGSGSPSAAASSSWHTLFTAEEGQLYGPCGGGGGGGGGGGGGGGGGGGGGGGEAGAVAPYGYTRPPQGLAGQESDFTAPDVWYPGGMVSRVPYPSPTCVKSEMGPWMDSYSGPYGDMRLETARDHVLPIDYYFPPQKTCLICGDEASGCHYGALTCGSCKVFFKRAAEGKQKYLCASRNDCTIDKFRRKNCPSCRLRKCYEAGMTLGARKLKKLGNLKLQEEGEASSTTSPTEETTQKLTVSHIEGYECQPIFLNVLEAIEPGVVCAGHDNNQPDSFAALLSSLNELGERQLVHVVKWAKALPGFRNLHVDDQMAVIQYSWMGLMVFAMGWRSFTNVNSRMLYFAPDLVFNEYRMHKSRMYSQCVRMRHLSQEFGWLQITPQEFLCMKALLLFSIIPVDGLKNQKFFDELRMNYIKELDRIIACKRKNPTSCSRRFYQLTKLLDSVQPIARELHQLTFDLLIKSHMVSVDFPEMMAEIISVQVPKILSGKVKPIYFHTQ
# protocol_summary: Antagonist activity at Androgen receptor F877L mutant in human HEK293T cells cotransfected with MMTV-luc and renilla plasmid incubated for 24 hrs by Dual luciferase assay
endpoint_name: pIC50
Hey, just a heads up that pIC50 is the negative log base 10 of the concentration in molar.

Query (molecule): "Cc1oc(-c2cccc(C(F)(F)F)c2)cc1C(=O)Nc1nc(CN2CCOCC2)ns1" ; field requested: pIC50
8.00
